The reported numbers originate from PubChem BioAssay (NCI).

TGI values by entry
# System: SNB-75 CNS
# experiment_description: NCI tumour cell line growth inhibition, 48 h

- molecule: "CN1CCOC1(C)c1ccccc1 (stereo not drawn)"
  TGI: "> 100 µM"
- molecule: "O=C(CC(=O)N1N=C(n2ccc3ccccc32)CC1c1ccccc1)Nc1ccccc1Cl (stereo not drawn)"
  TGI: "> 100 µM"
- molecule: "OCC1NC(CO)C(O)C1O (stereo not drawn)"
  TGI: "> 100 µM"

---

TGI values by entry
# Tested on: HL-60(TB) leukemia
# experiment_description: NCI tumour cell line growth inhibition, 48 h

- compound: "Cc1ccc(S(=O)(=O)NCCCSCCN)cc1"
  TGI: "> 100 µM"
- compound: "O=c1nc(N2CCCCC2)sc2[nH]c3ccccc3c12"
  TGI: "> 100 µM"
- compound: "CC(=O)[CH-]C(=O)c1ccccc1.CC(=O)[CH-]C(=O)c1ccccc1.CC(=O)[CH-]C(=O)c1ccccc1.[Cl-].[Hf+4]"
  TGI: "> 100 µM"
- compound: "CN(C)CC1CCCC/C1=N\\OC(=O)c1ccccc1 (stereo unspecified)"
  TGI: "> 100 µM"
- compound: "CCOP(=O)(OCC)C(Cc1c[nH]c2ccccc12)C(=O)O (stereo unspecified)"
  TGI: "> 100 µM"
- compound: "Cc1[nH]c2ccccc2c1/C=C/c1c(C)[nH]c2ccccc12"
  TGI: "> 100 µM"
- compound: "C=C(CC)C(=O)c1ccc(OCC(=O)O)c(Cl)c1Cl"
  TGI: "> 85 µM"
- compound: "CC(=O)[CH-]C(=O)c1ccccc1.CC(=O)[CH-]C(=O)c1ccccc1.CC[C@H](CCC(C)[C@H]1CCC2[C@@H]3CC=C4C[C@@H]([O-])CC[C@]4(C)C3CC[C@@]21C)C(C)C.CC[C@H](CCC(C)[C@H]1CCC2[C@@H]3CC=C4C[C@@H]([O-])CC[C@]4(C)C3CC[C@@]21C)C(C)C.Cl.[Ti+4] (stereo partly specified)"
  TGI: "> 25 µM"
- compound: "Cc1ncnc2c1ccn2[C@@H]1C[C@H](Oc2cc(C(F)F)c(F)c3c2CNCC3)[C@@H](O)[C@H]1O"
  TGI: "> 100 µM"
- compound: "O=C(NCCc1ccccn1)c1ccc2cc(C(=O)N3CC(CCl)c4ccc([N+](=O)[O-])cc43)[nH]c2c1 (stereo unspecified)"
  TGI: "> 100 µM"
- compound: "CN(C)/C=N/c1cc(=O)n(C)c(=O)n1C"
  TGI: "> 100 µM"
